The origin of these recorded values is PubChem BioAssay.

- assayText: inhibitors of E-selectin induction by TNFa, primary screen, imaging, HUVEC, immunofluorescence, MLSMR starter and 10KST1 sets (AID 487);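 also: 100% = median nuclei count of all wells on the same plate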
- settings: HUVEC TNFalpha-induced E-selectin immunofluorescence imaging, at 2 µM; measured here: cell number, toxicity
experimentalReadout: nuclei count (%)
Unit % implied. Number only.

Field request: nuclei count | item: `C/C=C(/C(=C/C)c1ccc(O)cc1)c1ccc(O)cc1`
132

Field request: nuclei count | item: COC(=O)C(NC(C)=O)(Nc1ccccn1)C(F)(F)F (centres undefined)
121

Field request: nuclei count | item: `COc1ccc(-c2nn3c(C4CCCCC4)nnc3s2)cc1OC`
159

Field request: nuclei count | item: `CCCCC[C@H](O)/C=C/C1=C(CCCCCCC(=O)O)C(=O)CC1`
111

Field request: nuclei count | item: `COc1ccccc1N1CCN(CCCCOc2ccc(F)cc2)CC1`
116

Field request: nuclei count | item: `CC(C)N1CCc2c(sc(N)c2C#N)C1`
177

Field request: nuclei count | item: O=C(CC(c1ccccc1)c1ccco1)N1CCOCC1 (centres undefined)
84.1

Field request: nuclei count | item: CCN1CCCC1Cn1cnc2c([nH]c3ccc(C)cc32)c1=O (centres undefined)
160

Field request: nuclei count | item: `Cn1ncc(N=Cc2ccccc2)c1C(N)=O`
138

Field request: nuclei count | item: `CC1(C)Cc2c(sc3c2C2=NCCN2C=N3)CO1`
139

Field request: nuclei count | item: Cc1ccc(N(CC(=O)O)C2SC(=O)NC2=O)cc1 (centres undefined)
142

Field request: nuclei count | item: `COc1ccc(N/C=C(\C#N)c2nc3ccccc3n2C)c(OC)c1`
138

Field request: nuclei count | item: `CC1(C)Cc2c(c(-c3ccccc3)nc(N3CCCC3)c2C(N)=O)CO1`
142

Field request: nuclei count | item: `CCOC(=O)c1[nH]c2ccc(Br)cc2c1NC(=O)CCN1CCN(C(=O)OCC)CC1`
158

Field request: nuclei count | item: CSc1nc2sc3c(c2c(=O)[nH]1)CCC(C)C3 (centres undefined)
191

Field request: nuclei count | item: `Cn1cnc2c1c(=O)[nH]c(=O)n2C`
124

Field request: nuclei count | item: `CCCCc1nc(NCCNC(=O)c2ccco2)c(C#N)c2c1CSC(C)(C)C2`
122

Field request: nuclei count | item: COc1ccc(NC(=O)CSC2=C(C#N)C(c3ccco3)C3=C(CCCC3=O)N2)c(OC)c1 (centres undefined)
104

Field request: nuclei count | item: `C[C@]12C=CC(=O)C=C1CC[C@@H]1[C@@H]2[C@@H](O)C[C@@]2(C)[C@H]1CC[C@]2(O)C(=O)COC(=O)CCC(=O)O`
120

Field request: nuclei count | item: `Cc1cc(/C=N\O)c(C)n1-c1ccncc1`
120

Field request: nuclei count | item: `Nc1ccc2oc3ncccc3c(=O)c2c1`
172

Field request: nuclei count | item: `O=CNC(=O)c1ccccc1C(=O)O`
162

Field request: nuclei count | item: `CCCCCn1c2nc3ccccc3nc2c2c(=O)n(CC(C)C)cnc21`
130

Field request: nuclei count | item: `Cc1cc(=O)oc2c(CN3CCN(C)CC3)c(O)c(Cl)cc12`
105

###

- assayText: DUSP6 inhibitors restoring Erk phosphorylation by chemical complementation, primary imaging in DUSP6-transfected HeLa (AID 609)
- settings: HeLa MKP-3 transfected, phospho-Erk imaging KS statistic; measured here: cell density z-score; at 10 µM; cells stimulated with TPA for 15 min
For each of the molecules below, state its z-score.
Response field accepts a number only; no unit should be typed.

Field request: z-score | item: CCOC(=O)C1(C(=O)OCC)C(c2ccccc2)CC(O)N1C(C)=O (stereo unspecified)
-0.838

Field request: z-score | item: `CCOC(=O)c1[nH]c2ccc(OC)cc2c1C`
-0.421

Field request: z-score | item: `Cc1oc2cc(O)ccc2c(=O)c1-c1cnn(-c2ccccc2)c1`
-0.098

Field request: z-score | item: `CCOC(=O)CSC1=C(C#N)C(=O)NC2(CCCCC2)S1`
-1.03

Field request: z-score | item: `O=C(NCCO)c1cccc2c1C(=O)c1ccccc1-2`
-0.677

Field request: z-score | item: `COc1cccc(-c2nc(NC(C)C)c3ccccc3n2)c1O`
-0.0785
